Target: VIM-1 (Veronese metallo-β-lactamase-1) (Pseudomonas aeruginosa, UniProt A0A0F7KYQ8)
Experiment: Metallo-β-lactamase enzyme inhibition, standard assay protocol
property: IC50

Illustrative cases are given below, each with its answer.
O=C(O)c1cc2scc(Br)c2[nH]1 = > 251 µM
O=C(O)c1cc2scc(C3CC3)c2[nH]1 = > 251 µM
CC(C)c1csc2cc(C(=O)O)[nH]c12 = > 251 µM

Field: next molecule
### Prompt Consider the molecule O=C(O)c1[nH]c2c(-c3ccc(F)cc3)csc2c1-c1ccc(F)cc1 and give its recorded IC50.
### Response > 39.8 µM

====

Target: NDM-1 (New Delhi metallo-β-lactamase-1) (Klebsiella pneumoniae)
Sequence (C7C422 29-270, looked up, species assumed): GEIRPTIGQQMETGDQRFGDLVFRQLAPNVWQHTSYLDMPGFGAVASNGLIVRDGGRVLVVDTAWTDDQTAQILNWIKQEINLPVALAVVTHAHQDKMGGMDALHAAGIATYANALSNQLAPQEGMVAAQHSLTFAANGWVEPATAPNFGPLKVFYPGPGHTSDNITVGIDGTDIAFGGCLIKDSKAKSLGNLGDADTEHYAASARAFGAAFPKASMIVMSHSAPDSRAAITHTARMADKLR
Assay: Metallo-β-lactamase enzyme inhibition, standard assay protocol
property: log10 IC50 (log10 of the value in nM)
Scale type: logarithmic (base 10). Underlying IC50 unit: nM.

Illustrative cases are given below, each with its answer.
CC(=O)Nc1cccc(-c2c(C(=O)O)[nH]c3c(Br)csc23)c1 = 2.50
CC(C)c1csc2cc(C(=O)O)[nH]c12 = 4.60
NS(=O)(=O)c1ccc(-c2c(C(=O)O)[nH]c3c(Br)csc23)cc1 = 1.80
O=C(O)c1cc2scc(C3CC3)c2[nH]1 = 5.10
O=C(O)c1[nH]c2c(C3CC3)csc2c1-c1ccc(F)cc1 = 1.70

Field: next compound
### Prompt Consider the compound O=C(O)c1[nH]c2c(Br)csc2c1-c1cc(Cl)cc(Cl)c1 and give its recorded log10 IC50.
### Response 1.80
